Sourced from ChEMBL document CHEMBL4837183

Tested on: UACC-62
assayOverview: Growth inhibition of human UACC-62 cells measured after 48 hrs by SRB assay
Format: functional
endpoint: GI50 (µM)
Return type: number; implicit unit µM.

C[C@]12C[C@H](O)[C@H]3[C@@H](CCC4=C[C@@H](O[C@@H]5O[C@H](CO)[C@@H](O)[C@H](O)[C@H]5O)CC[C@@]43CO)[C@@]1(O)CC[C@@H]2c1ccc(=O)oc1 : 0.025

Please look at the following compound next.
Let me know recorded GI50 for CCO[C@H]1C=C2CC[C@@H]3[C@H]([C@@H](O)C[C@]4(C)[C@@H](c5ccc(=O)oc5)CC[C@]34O)[C@@]2(C)CC1 , thanks. 1.27

====

Test system: SNB-75
assayOverview: Growth inhibition of human SNB-75 cells measured after 48 hrs by SRB assay
Assay type: functional
endpoint: GI50

Example cases with answers are listed next.
CCO[C@@H]1C=C2CC[C@@H]3[C@H]([C@@H](O)C[C@]4(C)[C@@H](c5ccc(=O)oc5)CC[C@]34O)[C@@]2(C)CC1 : 187 nM
CC(=O)OC[C@H]1O[C@@H](O[C@@H]2C=C3CC[C@@H]4[C@H](C(=O)C[C@]5(C)[C@@H](c6ccc(=O)oc6)CC[C@]45O)[C@@]3(C)CC2)[C@H](OC(C)=O)[C@@H](OC(C)=O)[C@@H]1OC(C)=O : > 10000 nM
C[C@]12CC[C@H]3[C@@H](CC[C@H]4C[C@@H](O)CC[C@@]43C=O)[C@@]1(O)CC[C@@H]2c1ccc(=O)oc1 : 3180 nM
CCO[C@H]1C=C2CC[C@@H]3[C@H]([C@@H](O)C[C@]4(C)[C@@H](c5ccc(=O)oc5)CC[C@]34O)[C@@]2(C)CC1 : 1060 nM
CC(=O)OC[C@H]1O[C@@H](O[C@@H]2C=C3CC[C@@H]4[C@H]([C@@H](O)C[C@]5(C)[C@@H](c6ccc(=O)oc6)CC[C@]45O)[C@@]3(C)CC2)[C@H](OC(C)=O)[C@@H](OC(C)=O)[C@@H]1OC(C)=O : 302 nM

Name the recorded GI50 of the item C[C@]12CC[C@@H](O)C=C1CC[C@@H]1[C@@H]2[C@@H](O)C[C@]2(C)[C@@H](c3ccc(=O)oc3)CC[C@]12O in your answer. 2170 nM

====

Test system: Hs-578T
assayOverview: Growth inhibition of human Hs-578T cells measured after 48 hrs by SRB assay
Assay type: functional
endpoint: GI50 (µM)
Return type: number; implicit unit µM.

CC(=O)OC[C@H]1O[C@@H](O[C@@H]2C=C3CC[C@@H]4[C@H]([C@@H](O)C[C@]5(C)[C@@H](c6ccc(=O)oc6)CC[C@]45O)[C@@]3(C)CC2)[C@H](OC(C)=O)[C@@H](OC(C)=O)[C@@H]1OC(C)=O : 0.091
C[C@]12CC[C@H]3[C@@H](CC[C@H]4C[C@@H](O)CC[C@@]43C=O)[C@@]1(O)CC[C@@H]2c1ccc(=O)oc1 : 0.739

Next up:
State the measured GI50 (Hs-578T) of C[C@]12CC[C@H](O[C@@H]3O[C@H](CO)[C@@H](O)[C@H](O)[C@H]3O)C=C1CC[C@@H]1[C@@H]2[C@@H](O)C[C@]2(C)[C@@H](c3ccc(=O)oc3)CC[C@]12O 0.025

====

System: LOX IMVI
assayOverview: Growth inhibition of human LOX IMVI cells measured after 48 hrs by SRB assay
Assay type: functional
endpoint: GI50

CCO[C@@H]1C=C2CC[C@@H]3[C@H]([C@@H](O)C[C@]4(C)[C@@H](c5ccc(=O)oc5)CC[C@]34O)[C@@]2(C)CC1 : 0.137 µM
CCO[C@H]1C=C2CC[C@@H]3[C@H]([C@@H](O)C[C@]4(C)[C@@H](c5ccc(=O)oc5)CC[C@]34O)[C@@]2(C)CC1 : 1.8 µM
CC(=O)OC[C@H]1O[C@@H](O[C@@H]2C=C3CC[C@@H]4[C@H](C(=O)C[C@]5(C)[C@@H](c6ccc(=O)oc6)CC[C@]45O)[C@@]3(C)CC2)[C@H](OC(C)=O)[C@@H](OC(C)=O)[C@@H]1OC(C)=O : > 10 µM

Now for the compound whose GI50 we want.
For C[C@]12CC[C@H](O)C=C1CC[C@@H]1[C@@H]2[C@@H](O)C[C@]2(C)[C@@H](c3ccc(=O)oc3)CC[C@]12O , write its GI50. 1.03 µM

====

Test system: UACC-257
assayOverview: Growth inhibition of human UACC-257 cells measured after 48 hrs by SRB assay
Assay type: functional
endpoint: GI50

// fetch GI50 given entry CC(=O)OC[C@H]1O[C@@H](O[C@@H]2C=C3CC[C@@H]4[C@H]([C@@H](O)C[C@]5(C)[C@@H](c6ccc(=O)oc6)CC[C@]45O)[C@@]3(C)CC2)[C@H](OC(C)=O)[C@@H](OC(C)=O)[C@@H]1OC(C)=O 376 nM

Give the reported value of GI50 for this record: CC(=O)OC[C@H]1O[C@@H](O[C@@H]2C=C3CC[C@@H]4[C@H](C(=O)C[C@]5(C)[C@@H](c6ccc(=O)oc6)CC[C@]45O)[C@@]3(C)CC2)[C@H](OC(C)=O)[C@@H](OC(C)=O)[C@@H]1OC(C)=O > 10000 nM

Name the recorded GI50 of the item C[C@]12CC[C@H](O)C=C1CC[C@@H]1[C@@H]2[C@@H](O)C[C@]2(C)[C@@H](c3ccc(=O)oc3)CC[C@]12O in your answer. 2630 nM

Assign GI50 to the following record: C[C@]12CC[C@H](O[C@@H]3O[C@H](CO)[C@@H](O)[C@H](O)[C@H]3O)C=C1CC[C@@H]1[C@@H]2[C@@H](O)C[C@]2(C)[C@@H](c3ccc(=O)oc3)CC[C@]12O 93 nM

Look up and report measured GI50 for this entry: C[C@]12C[C@H](O)[C@H]3[C@@H](CCC4=C[C@@H](O[C@@H]5O[C@H](CO)[C@@H](O)[C@H](O)[C@H]5O)CC[C@@]43CO)[C@@]1(O)CC[C@@H]2c1ccc(=O)oc1 42 nM

====

Tested on: LOX IMVI
assayOverview: Growth inhibition of human LOX IMVI cells measured after 48 hrs by SRB assay
Format: functional
Recorded GI50 for the following compounds
// note: answer is a bare numeric in nM

The following compounds have reported results that may help.
CC(=O)OC[C@H]1O[C@@H](O[C@@H]2C=C3CC[C@@H]4[C@H]([C@@H](O)C[C@]5(C)[C@@H](c6ccc(=O)oc6)CC[C@]45O)[C@@]3(C)CC2)[C@H](OC(C)=O)[C@@H](OC(C)=O)[C@@H]1OC(C)=O : 314
C[C@]12CC[C@H](O[C@@H]3O[C@H](CO)[C@@H](O)[C@H](O)[C@H]3O)C=C1CC[C@@H]1[C@@H]2[C@@H](O)C[C@]2(C)[C@@H](c3ccc(=O)oc3)CC[C@]12O : 64
C[C@]12C[C@H](O)[C@H]3[C@@H](CCC4=C[C@@H](O[C@@H]5O[C@H](CO)[C@@H](O)[C@H](O)[C@H]5O)CC[C@@]43CO)[C@@]1(O)CC[C@@H]2c1ccc(=O)oc1 : 18
C[C@]12CC[C@H]3[C@@H](CC[C@H]4C[C@@H](O)CC[C@@]43C=O)[C@@]1(O)CC[C@@H]2c1ccc(=O)oc1 : 2370

Find the measured GI50 of C[C@]12CC[C@@H](O)C=C1CC[C@@H]1[C@@H]2[C@@H](O)C[C@]2(C)[C@@H](c3ccc(=O)oc3)CC[C@]12O with LOX IMVI as test system. 3690

====

Tested on: NCI-H460
assayOverview: Growth inhibition of human NCI-H460 cells measured after 48 hrs by SRB assay
Assay type: functional
endpoint: GI50

C[C@]12CC[C@@H](O)C=C1CC[C@@H]1[C@@H]2[C@@H](O)C[C@]2(C)[C@@H](c3ccc(=O)oc3)CC[C@]12O : 573 nM
CC(=O)OC[C@H]1O[C@@H](O[C@@H]2C=C3CC[C@@H]4[C@H](C(=O)C[C@]5(C)[C@@H](c6ccc(=O)oc6)CC[C@]45O)[C@@]3(C)CC2)[C@H](OC(C)=O)[C@@H](OC(C)=O)[C@@H]1OC(C)=O : 3530 nM
CCO[C@@H]1C=C2CC[C@@H]3[C@H]([C@@H](O)C[C@]4(C)[C@@H](c5ccc(=O)oc5)CC[C@]34O)[C@@]2(C)CC1 : 39 nM
C[C@]12CC[C@H](O)C=C1CC[C@@H]1[C@@H]2[C@@H](O)C[C@]2(C)[C@@H](c3ccc(=O)oc3)CC[C@]12O : 365 nM
C[C@]12CC[C@H](O[C@@H]3O[C@H](CO)[C@@H](O)[C@H](O)[C@H]3O)C=C1CC[C@@H]1[C@@H]2[C@@H](O)C[C@]2(C)[C@@H](c3ccc(=O)oc3)CC[C@]12O : 13 nM

Dear colleague, please send me the reported GI50 for CCO[C@H]1C=C2CC[C@@H]3[C@H]([C@@H](O)C[C@]4(C)[C@@H](c5ccc(=O)oc5)CC[C@]34O)[C@@]2(C)CC1 when you can. 247 nM

Find the measured GI50 of CC(=O)OC[C@H]1O[C@@H](O[C@@H]2C=C3CC[C@@H]4[C@H]([C@@H](O)C[C@]5(C)[C@@H](c6ccc(=O)oc6)CC[C@]45O)[C@@]3(C)CC2)[C@H](OC(C)=O)[C@@H](OC(C)=O)[C@@H]1OC(C)=O and report it. 65 nM

Specify reported GI50 for the compound shown: C[C@]12CC[C@H]3[C@@H](CC[C@H]4C[C@@H](O)CC[C@@]43C=O)[C@@]1(O)CC[C@@H]2c1ccc(=O)oc1 556 nM

Item C[C@]12C[C@H](O)[C@H]3[C@@H](CCC4=C[C@@H](O[C@@H]5O[C@H](CO)[C@@H](O)[C@H](O)[C@H]5O)CC[C@@]43CO)[C@@]1(O)CC[C@@H]2c1ccc(=O)oc1 : provide GI50 6 nM
